- assay-protocol: Metabolic stability in human liver microsomes assessed as compound remaining after 30 mins in presence of 1 mM NADPH
- Assay type: ADME, Microsome
- condition-info: liver microsomes, read-out: Stability
experimental-endpoint: remaining at 0.5 h (%)

{"compound": "O=S(=O)(c1ccc(Cl)cc1)N1Cc2c[nH]nc2CC1Cc1ccccc1 (racemic)", "remaining at 0.5 h / %": 3}
{"compound": "CC(C)C1Cc2n[nH]cc2CN1S(=O)(=O)c1ccc(Cl)cc1 (racemic)", "remaining at 0.5 h / %": 5}
{"compound": "CC[C@H]1Cc2n[nH]cc2[C@@H](c2ccc(Cl)cc2)N1S(=O)(=O)c1ccc(Cl)cc1 (racemic)", "remaining at 0.5 h / %": 10}
{"compound": "O=S(=O)(c1ccc(Cl)cc1)N1Cc2c[nH]nc2CC1c1cc(F)cc(F)c1 (racemic)", "remaining at 0.5 h / %": 3}
{"compound": "O=S(=O)(c1ccc(Cl)cc1)N1CCc2n[nH]cc2C1c1nccs1 (racemic)", "remaining at 0.5 h / %": 57}

1 = CN(C)C(=O)OCC1c2c[nH]nc2CCN1S(=O)(=O)c1ccc(Cl)cc1 (racemic)
2 = O=S(=O)(c1ccc(Cl)cc1)N1Cc2c[nH]nc2CC1c1nccs1 (racemic)
3 = O=S(=O)(c1ccc(Cl)cc1)N1Cc2cn[nH]c2CC1c1ccc(F)cc1 (racemic)
Prompt: Thanks in advance: please rank these 3 entries by remaining at 0.5 h, highest to lowest. Your answer should be the labels, listed in the requested order.
Response: 2, 1, 3
(2: 54%, 1: 15%, 3: 6%)

P = O=S(=O)(c1ccc(Cl)cc1)N1CCc2[nH]ncc2C1c1cncnc1 (stereo not drawn)
Q = O=S(=O)(c1ccc(Cl)cc1)N1Cc2cn[nH]c2CC1c1ccc(Cl)cc1 (racemic)
Prompt: Which entry has a larger number for remaining at 0.5 h, P or Q ? Identify your selection by its label.
Response: P
(P: 50%, Q: 12%)

a = O=S(=O)(c1ccc(Cl)cc1)N1Cc2c[nH]nc2CC1c1ccccc1 (stereo not drawn)
b = O=S(=O)(c1ccc(Cl)cc1)N1Cc2c[nH]nc2CC1c1cncnc1 (stereo not drawn)
c = CC[C@H]1Cc2n[nH]cc2CN1S(=O)(=O)c1ccc(Cl)cc1 (racemic)
Prompt: Thanks in advance: please rank these 3 entries by remaining at 0.5 h, highest to lowest. Your answer should be the labels, listed in the requested order.
Response: b, c, a
(b: 67%, c: 18%, a: 5%)
